Quick reference: shrunken log2 fold change of the listed items.
system: Escherichia coli TOP10; test: shrunken log2 fold change of peptide-encoding DNA abundance (4.5 h post-induction vs induction); higher = less antimicrobial activity (less host growth inhibition); conditions: time post-induction: 4.5 h; library: site-saturation at positions 5, 18, 19, 20
OBSERVATION_TYPE: shrunken log2 fold change

> print(dat)
              sequence.code  test.value
 1  RRIRRRPPRLPRPRPRPRQQPRP     -0.0361
 2  RRIRIRPPRLPRPRPRPAKRPRP      0.0281
 3  RRIRIRPPRLPRPRPRPYQDPRP     -0.0361
 4  RRIRERPPRLPRPRPRPNSKPRP      -0.863
 5  RRIRPRPPRLPRPRPRPMMAPRP      0.0466
 6  RRIRRRPPRLPRPRPRPSEAPRP     -0.0295
 7  RRIRHRPPRLPRPRPRPMHSPRP      0.0758
 8  RRIRARPPRLPRPRPRPFSLPRP      0.0486
 9  RRIRCRPPRLPRPRPRPVAFPRP      -0.169
10  RRIRYRPPRLPRPRPRPMVSPRP    -0.00277
11  RRIRSRPPRLPRPRPRPLHWPRP       0.197
12  RRIRYRPPRLPRPRPRPEQPPRP     0.00487
13  RRIRYRPPRLPRPRPRPGHLPRP     -0.0798
14  RRIRIRPPRLPRPRPRPQEKPRP      0.0553
15  RRIRCRPPRLPRPRPRPPDPPRP       0.459
16  RRIRRRPPRLPRPRPRPFHWPRP      -0.111
17  RRIRGRPPRLPRPRPRPKRAPRP        1.11
18  RRIRNRPPRLPRPRPRPRGDPRP       0.131
19  RRIRTRPPRLPRPRPRPTTCPRP    -0.00487
20  RRIRIRPPRLPRPRPRPNLYPRP      -0.565
21  RRIRCRPPRLPRPRPRPKKWPRP     0.00275
22  RRIRGRPPRLPRPRPRPSMFPRP       0.554
23  RRIRERPPRLPRPRPRPFWSPRP      -0.109
24  RRIRQRPPRLPRPRPRPYSHPRP     -0.0388
25  RRIRFRPPRLPRPRPRPLLNPRP      -0.549
26  RRIRNRPPRLPRPRPRPMFGPRP       -0.23
27  RRIRQRPPRLPRPRPRPPKIPRP       0.156
28  RRIRVRPPRLPRPRPRPGCFPRP        0.15
29  RRIRDRPPRLPRPRPRPEGDPRP       0.502
30  RRIRKRPPRLPRPRPRPQAEPRP      0.0754
31  RRIRFRPPRLPRPRPRPWYKPRP      -0.145
32  RRIRARPPRLPRPRPRPYAWPRP      -0.129

###

tested on: Escherichia coli TOP10; experiment: shrunken log2 fold change of peptide-encoding DNA abundance (4.5 h post-induction vs induction); higher = less antimicrobial activity (less host growth inhibition); details: time post-induction: 4.5 h; library: site-saturation at positions 5, 18, 19, 20;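 further: peptides expressed intracellularly from a pBAD plasmid library in pooled LB shake-flask culture, induced with 0.3% L-arabinose, DNA abundance read by NGS, three biological replicates, DESeq2 with apeglm shrinkage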
// N strictly below -0.2 in shrunken log2 fold change; Y otherwise

> print(dat)
              sequence.code  assigned.label
 1  RRIRKRPPRLPRPRPRPCLDPRP               Y
 2  RRIRDRPPRLPRPRPRPMQPPRP               Y
 3  RRIRTRPPRLPRPRPRPTVAPRP               Y
 4  RRIRVRPPRLPRPRPRPSCCPRP               Y
 5  RRIRNRPPRLPRPRPRPCSSPRP               Y
 6  RRIRQRPPRLPRPRPRPEMYPRP               Y
 7  RRIRNRPPRLPRPRPRPLKQPRP               Y
 8  RRIRDRPPRLPRPRPRPCYFPRP               N
 9  RRIRCRPPRLPRPRPRPLDTPRP               Y
10  RRIRWRPPRLPRPRPRPYMSPRP               N
11  RRIRPRPPRLPRPRPRPGHMPRP               N
12  RRIRWRPPRLPRPRPRPYSWPRP               Y
13  RRIRERPPRLPRPRPRPTHKPRP               Y
14  RRIRKRPPRLPRPRPRPETHPRP               Y
15  RRIRDRPPRLPRPRPRPLFHPRP               Y
